MEASUREMENT TARGET: EGFR (UniProt P00533)
Sequence (P00533 whole entry, looked up): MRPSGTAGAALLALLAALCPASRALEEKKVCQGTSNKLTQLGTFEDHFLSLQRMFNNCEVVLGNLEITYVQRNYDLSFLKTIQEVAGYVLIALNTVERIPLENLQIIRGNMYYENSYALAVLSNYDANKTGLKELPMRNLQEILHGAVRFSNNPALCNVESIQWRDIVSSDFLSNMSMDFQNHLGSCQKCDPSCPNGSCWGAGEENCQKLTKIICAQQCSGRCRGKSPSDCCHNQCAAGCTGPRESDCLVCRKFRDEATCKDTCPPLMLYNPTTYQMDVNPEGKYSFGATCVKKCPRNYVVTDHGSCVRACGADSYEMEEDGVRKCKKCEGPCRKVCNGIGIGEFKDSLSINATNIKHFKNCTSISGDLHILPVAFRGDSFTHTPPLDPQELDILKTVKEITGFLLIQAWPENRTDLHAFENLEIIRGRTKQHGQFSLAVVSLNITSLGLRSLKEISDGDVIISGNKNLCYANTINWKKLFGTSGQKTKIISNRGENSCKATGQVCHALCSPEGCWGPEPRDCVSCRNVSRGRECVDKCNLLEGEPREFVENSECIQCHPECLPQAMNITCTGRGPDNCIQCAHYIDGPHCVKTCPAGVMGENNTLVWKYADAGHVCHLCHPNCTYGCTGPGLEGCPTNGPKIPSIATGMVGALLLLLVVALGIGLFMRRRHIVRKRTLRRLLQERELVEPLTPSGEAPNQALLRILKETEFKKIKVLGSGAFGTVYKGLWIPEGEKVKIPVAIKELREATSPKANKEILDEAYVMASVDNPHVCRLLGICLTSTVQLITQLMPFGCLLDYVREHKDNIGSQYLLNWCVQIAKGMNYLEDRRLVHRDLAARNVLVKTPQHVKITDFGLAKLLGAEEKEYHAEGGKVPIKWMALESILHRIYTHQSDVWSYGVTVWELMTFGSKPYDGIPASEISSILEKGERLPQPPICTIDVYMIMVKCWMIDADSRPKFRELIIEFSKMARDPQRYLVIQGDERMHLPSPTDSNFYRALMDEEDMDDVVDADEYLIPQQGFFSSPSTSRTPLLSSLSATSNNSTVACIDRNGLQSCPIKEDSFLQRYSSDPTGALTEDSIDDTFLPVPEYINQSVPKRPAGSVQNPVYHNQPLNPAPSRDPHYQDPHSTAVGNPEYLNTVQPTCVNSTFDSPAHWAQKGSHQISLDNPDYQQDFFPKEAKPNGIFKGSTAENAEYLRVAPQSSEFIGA
Ranges used to classify IC50: low bin: < 5 µM; mid bin: ≥ 5 µM and < 9 µM; high bin: ≥ 9 µM

Record excerpt, results attached:
>  <MOLECULE>
N#C/C(=C\c1ccc(O)c(O)c1)C(=O)NCc1cccc(CNC(=O)/C(C#N)=C/c2ccc(O)c(O)c2)c1

>  <DISCRETE LABEL>
mid bin

$$$$
>  <MOLECULE>
COc1cc(/C=C(\C#N)C(=O)NCCCCNC(=O)/C(C#N)=C/c2cc(OC)c(O)c([N+](=O)[O-])c2)cc([N+](=O)[O-])c1O

>  <DISCRETE LABEL>
high bin

$$$$
>  <MOLECULE>
N#C/C(=C\c1ccc(O)c(O)c1)C(=O)NCCNC(=O)/C(C#N)=C/c1ccc(O)c(O)c1

>  <DISCRETE LABEL>
high bin

$$$$
>  <MOLECULE>
N#C/C(=C\c1ccc(O)c(O)c1)C(=O)NCC1CCCC(CNC(=O)/C(C#N)=C/c2ccc(O)c(O)c2)C1 (stereo not given)

>  <DISCRETE LABEL>
high bin

$$$$
>  <MOLECULE>
N#C/C(=C\c1cc(O)c(O)c(Br)c1)C(=O)NCCCNC(=O)/C(C#N)=C/c1cc(O)c(O)c(Br)c1

>  <DISCRETE LABEL>
mid bin

$$$$
>  <MOLECULE>
N#C/C(=C\c1ccc(O)c(O)c1)S(=O)(=O)/C(C#N)=C/c1ccc(O)c(O)c1

>  <DISCRETE LABEL>
low bin

$$$$
>  <MOLECULE>
N#C/C(=C\c1ccc(O)c(O)c1)C(=O)NC1CCCCC1NC(=O)/C(C#N)=C/c1ccc(O)c(O)c1 (stereo not given)

>  <DISCRETE LABEL>
low bin

$$$$

Shift focus to the following entry.
Kindly identify the class of N#C/C(=C\c1ccc(O)c(O)c1)C(=O)NCCN1CCN(C(=O)/C(C#N)=C/c2ccc(O)c(O)c2)CC1 . mid bin
